Target Entity: FXa (Homo sapiens (Human))
Sequence (P00742 235-488): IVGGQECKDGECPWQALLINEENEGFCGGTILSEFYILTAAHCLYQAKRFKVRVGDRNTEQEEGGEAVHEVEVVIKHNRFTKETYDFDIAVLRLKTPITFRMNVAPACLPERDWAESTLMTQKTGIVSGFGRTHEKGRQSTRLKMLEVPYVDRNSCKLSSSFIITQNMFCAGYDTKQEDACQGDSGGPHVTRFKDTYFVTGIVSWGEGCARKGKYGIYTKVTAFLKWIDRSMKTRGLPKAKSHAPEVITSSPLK
Sequence (P00742 41-179 partner): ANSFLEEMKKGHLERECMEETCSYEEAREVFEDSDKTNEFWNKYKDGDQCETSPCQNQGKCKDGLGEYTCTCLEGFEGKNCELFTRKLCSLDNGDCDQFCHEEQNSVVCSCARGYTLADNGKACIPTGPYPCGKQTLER
pIC50: −log10 of the molar value.
# pIC50 listing for each entry below

Known results for compounds:
- Compound: "Nc1nccc2cc(NCc3ccc(OCC4CCn5ccnc5C4)nc3)ccc12 (stereo not shown) [Example 1006]"
  pIC50: "5.52 to 6.00"
- Compound: "CN1CCC(Oc2cc(CNc3ccc4c(N)nccc4c3)ccn2)CC1 [Example 4259]"
  pIC50: "5.00 to 5.52"
- Compound: "CC(C)Oc1cc(NCc2ccc(N3CCn4c(nnc4C(F)(F)F)C3)nc2)ccn1 [Example 1290]"
  pIC50: "< 4.40"

We now examine a further compound.
Lab note: need pIC50 with FXa (Homo sapiens (Human)) for entry CN1[C@@H]2COC[C@H]1CC(OCc1ccc(CNc3cccc4c(N)nccc34)c(F)c1)C2 (stereo partly shown) [Example 2254] , please look it up.
4.40 to 5.00

----------
Heads up, these molecules all have IC50 values measured for UniProt:P00748.
Sequence (P00748 373-615): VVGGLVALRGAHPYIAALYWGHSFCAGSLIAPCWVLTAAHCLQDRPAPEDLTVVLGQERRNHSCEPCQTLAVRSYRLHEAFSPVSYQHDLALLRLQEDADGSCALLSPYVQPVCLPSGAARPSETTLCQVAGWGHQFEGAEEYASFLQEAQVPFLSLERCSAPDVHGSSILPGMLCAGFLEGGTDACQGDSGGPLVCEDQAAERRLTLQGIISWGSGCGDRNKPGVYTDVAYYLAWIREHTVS

Known results for molecules:
- Molecule: "CC(C)N1C[C@H]2C[C@@H]1CN2Cc1cc(CNc2cccc3c(N)nccc23)ccn1 [Example 4294]"
  Target Entity: "UniProt:P00748"
  Observed: "10 to 40 µM"
- Molecule: "CN1CCC(OCc2ccc(CNc3ccc4cnccc4c3)cc2)CC1 [Example 2193]"
  Target Entity: "UniProt:P00748"
  Observed: "3 to 10 µM"
- Molecule: "CN1CCC(CNc2ccc(CNc3ccc4c(N)nccc4c3)cn2)CC1 [Example 1033]"
  Target Entity: "UniProt:P00748"
  Observed: "0.01 to 0.1 µM"
- Molecule: "Cc1cnc2[nH]ccc2c1NCc1ccc(NCC2CCN(C)CC2)nc1 [Example 1205]"
  Target Entity: "UniProt:P00748"
  Observed: "10 to 40 µM"
- Molecule: "CN1CCC(CNc2ccc(CNc3cc(C(F)(F)F)cc4[nH]ccc34)cn2)CC1 [Example 1237]"
  Target Entity: "UniProt:P00748"
  Observed: "10 to 40 µM"

Need IC50 of CC(C)N1CCC(COc2cc(CNc3cccc4c(N)nccc34)ccn2)CC1 [Example 4299] , thanks.
0.1 to 0.3 µM

And then CN1CCC(COc2cc(CNc3ccc4c(N)nccc4c3)cc(C(F)(F)F)n2)CC1 [Example 4265] , what is it?
0.1 to 0.3 µM

And then CN1CCN(c2cc(CNc3ccc4c(N)ncc(Cl)c4c3)ccn2)CC1 [Example 4427] , what is it?
10 to 40 µM

----------
Target Entity: FXa (Homo sapiens (Human))
Measured Parameter: IC50

Known results for compounds:
- Compound: "CN1CCC(COc2cc(CNc3cc4ccnc(N)c4cn3)ccn2)CC1 [Example 4271]"
  Measured Parameter: "IC50"
  Observed: "0.3 to 1 µM"
- Compound: "CN1CCC(CNc2ccc(CNc3ccnc4[nH]c(Cl)cc34)cn2)CC1 [Example 1243]"
  Measured Parameter: "IC50"
  Observed: "10 to 40 µM"
- Compound: "CN1CCC(CNc2cc(CNc3ccc4c(N)ncc(Cl)c4c3)ccn2)CC1 [Example 4285]"
  Measured Parameter: "IC50"
  Observed: "10 to 40 µM"
- Compound: "Nc1nccc2cc(NCc3ccc(COC4CCN(C5CC5)CC4)cc3)ccc12 [Example 2195]"
  Measured Parameter: "IC50"
  Observed: "10 to 40 µM"
- Compound: "Cc1cc(CNc2cccc3c(N)nccc23)cnc1N1CCn2c(nnc2C(F)(F)F)C1 [Example 1302]"
  Measured Parameter: "IC50"
  Observed: "> 40 µM"
- Compound: "Cc1cc(N2CCn3c(nnc3C(F)(F)F)C2)nc(C)c1CNc1cccc2c(N)nccc12 [Example 9006]"
  Measured Parameter: "IC50"
  Observed: "> 40 µM"

We now examine a further compound.
Need IC50 of CN1CC2CCC(C1)C2COc1cc(CNc2ccc3c(N)nccc3c2)ccn1 (stereo not shown) [Example 4270] , thanks.
0.01 to 0.1 µM
